- Assayed system: Progesterone receptor (Homo sapiens) (UniProt P06401)
- Assay: Agonist efficacy for human progesterone receptor (hPR) was compared to that of progesterone (100%)
- Format: functional
Grouping key: Efficacy. Bins: lo (below 40%), mid (40% to below 60%), hi (60% or more)

**Query** Any idea which band CC1=CC(C)(C)Nc2ccc3c(c21)C(c1cc(F)cc(Br)c1)Oc1ccccc1-3 (centres undefined) is in?
**Result** mid

**Query** Any idea which band CC1=CC(C)(C)Nc2ccc3c(c21)C(c1cccc(C(F)(F)F)c1)Oc1ccccc1-3 (centres undefined) is in?
**Result** hi

**Query** Any idea which band CC1=CC(C)(C)Nc2ccc3c(c21)C(c1ccc(C(F)(F)F)cc1)Oc1ccccc1-3 (centres undefined) is in?
**Result** lo

**Query** Any idea which band CC1=CC(C)(C)Nc2ccc3c(c21)C(c1ccc(Cl)c(Cl)c1)Oc1ccccc1-3 (centres undefined) is in?
**Result** hi

**Query** Any idea which band CC1=CC(C)(C)Nc2ccc3c(c21)C(c1cc(Cl)cc(Cl)c1)Oc1ccccc1-3 (centres undefined) is in?
**Result** mid

**Query** Any idea which band CC1=CC(C)(C)Nc2ccc3c(c21)C(c1ccc(F)cc1)Oc1ccccc1-3 (centres undefined) is in?
**Result** lo

**Query** Any idea which band CC1=CC(C)(C)Nc2ccc3c(c21)C(c1cccc(F)c1)Oc1ccccc1-3 (centres undefined) is in?
**Result** mid

**Query** Any idea which band CC1=CC(C)(C)Nc2ccc3c(c21)C(c1cccc(Br)n1)Oc1ccccc1-3 (centres undefined) is in?
**Result** lo

----------
Record form. Attribute: Ki. Fill in for each entry.
- Assayed system: Progesterone receptor (Homo sapiens)
- Sequence (P06401 whole entry): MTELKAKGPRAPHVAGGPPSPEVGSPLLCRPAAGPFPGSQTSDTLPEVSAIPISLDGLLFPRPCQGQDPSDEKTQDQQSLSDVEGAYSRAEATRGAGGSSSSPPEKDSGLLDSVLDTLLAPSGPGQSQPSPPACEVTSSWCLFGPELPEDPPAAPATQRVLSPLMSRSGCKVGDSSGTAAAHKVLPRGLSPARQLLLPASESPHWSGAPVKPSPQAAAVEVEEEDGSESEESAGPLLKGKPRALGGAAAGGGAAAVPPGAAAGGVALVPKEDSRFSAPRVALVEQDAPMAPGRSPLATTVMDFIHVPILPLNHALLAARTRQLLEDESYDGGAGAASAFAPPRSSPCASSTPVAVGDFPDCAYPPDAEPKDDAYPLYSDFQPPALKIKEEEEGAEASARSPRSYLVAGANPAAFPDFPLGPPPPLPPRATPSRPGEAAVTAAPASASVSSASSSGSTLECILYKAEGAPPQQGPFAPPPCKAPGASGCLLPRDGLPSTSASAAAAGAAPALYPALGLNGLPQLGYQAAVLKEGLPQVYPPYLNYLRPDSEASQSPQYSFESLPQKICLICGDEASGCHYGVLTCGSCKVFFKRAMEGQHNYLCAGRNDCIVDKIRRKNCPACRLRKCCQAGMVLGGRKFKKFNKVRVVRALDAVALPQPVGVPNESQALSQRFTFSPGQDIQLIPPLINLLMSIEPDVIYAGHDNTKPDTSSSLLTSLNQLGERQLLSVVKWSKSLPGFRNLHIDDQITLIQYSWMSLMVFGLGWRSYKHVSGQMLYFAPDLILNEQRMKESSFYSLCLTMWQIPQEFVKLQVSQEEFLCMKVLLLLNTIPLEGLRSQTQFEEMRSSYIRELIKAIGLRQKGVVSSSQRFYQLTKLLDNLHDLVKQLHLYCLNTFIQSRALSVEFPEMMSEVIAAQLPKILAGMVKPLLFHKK
Express the result in nM but write the number alone.

The value of Ki measured for the compound CC1=CC(C)(C)Nc2ccc3c(c21)C(c1ccc(Br)cc1)Oc1ccccc1-3 (centres undefined) turned out to be 0.55

The value of Ki measured for the compound CC1=CC(C)(C)Nc2ccc3c(c21)C(c1cccc(F)c1)Oc1ccccc1-3 (centres undefined) turned out to be 0.69

The value of Ki measured for the compound CC1=CC(C)(C)Nc2ccc3c(c21)C(c1ccccc1)Oc1ccccc1-3 (centres undefined) turned out to be 3.6

The value of Ki measured for the compound CC1=CC(C)(C)Nc2ccc3c(c21)C(c1ccc(Cl)c(Cl)c1)Oc1ccccc1-3 (centres undefined) turned out to be 3.4

----------
- Assayed system: Progesterone receptor (Homo sapiens) (UniProt P06401)
- Sequence (whole entry): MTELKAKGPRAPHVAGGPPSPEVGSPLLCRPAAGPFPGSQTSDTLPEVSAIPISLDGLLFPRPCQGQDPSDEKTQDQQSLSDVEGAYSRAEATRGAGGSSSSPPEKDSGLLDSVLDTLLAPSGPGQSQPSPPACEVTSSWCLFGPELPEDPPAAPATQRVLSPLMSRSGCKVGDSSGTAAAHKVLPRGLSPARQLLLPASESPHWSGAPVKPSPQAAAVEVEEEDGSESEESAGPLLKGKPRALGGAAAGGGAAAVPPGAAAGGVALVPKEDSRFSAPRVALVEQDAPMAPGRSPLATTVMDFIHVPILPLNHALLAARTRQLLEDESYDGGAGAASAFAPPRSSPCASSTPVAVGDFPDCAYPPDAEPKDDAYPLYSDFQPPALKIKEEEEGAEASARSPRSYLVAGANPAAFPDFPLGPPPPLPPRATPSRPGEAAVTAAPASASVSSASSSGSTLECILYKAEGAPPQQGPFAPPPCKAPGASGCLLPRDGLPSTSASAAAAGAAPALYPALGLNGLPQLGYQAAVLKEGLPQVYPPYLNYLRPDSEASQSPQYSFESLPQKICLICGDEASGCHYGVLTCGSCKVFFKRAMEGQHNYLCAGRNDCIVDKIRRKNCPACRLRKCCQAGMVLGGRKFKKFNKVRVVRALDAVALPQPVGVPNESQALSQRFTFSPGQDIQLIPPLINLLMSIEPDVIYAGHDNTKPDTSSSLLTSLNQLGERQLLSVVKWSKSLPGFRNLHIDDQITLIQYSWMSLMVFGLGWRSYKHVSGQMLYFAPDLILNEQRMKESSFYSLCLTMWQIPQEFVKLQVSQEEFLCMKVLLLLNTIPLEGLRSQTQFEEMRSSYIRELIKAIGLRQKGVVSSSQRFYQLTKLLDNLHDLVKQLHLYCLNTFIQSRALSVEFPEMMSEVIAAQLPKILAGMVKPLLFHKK
- Assay: Human progesterone receptor (hPR) antagonist efficacy was determined as a function (%) of maximal inhibition of progesterone at EC50 value.
- Assay type: functional
Recorded metric: Efficacy (%)
Express the result in % but write the number alone.

The value of Efficacy measured for the compound CC1=CC(C)(C)Nc2ccc3c(c21)C(c1ccc(Cl)cc1)Oc1ccccc1-3 (centres undefined) turned out to be 31

The value of Efficacy measured for the compound CC1=CC(C)(C)Nc2ccc3c(c21)C(c1cccc(Br)n1)Oc1ccccc1-3 (centres undefined) turned out to be 86

The value of Efficacy measured for the compound CC1=CC(C)(C)Nc2ccc3c(c21)C(c1ccc(F)cc1)Oc1ccccc1-3 (centres undefined) turned out to be 77

The value of Efficacy measured for the compound CC1=CC(C)(C)Nc2ccc3c(c21)C(c1ccc(F)c(C(F)(F)F)c1)Oc1ccccc1-3 (centres undefined) turned out to be 56

The value of Efficacy measured for the compound CC1=CC(C)(C)Nc2ccc3c(c21)C(c1cccc(F)c1)Oc1ccccc1-3 (centres undefined) turned out to be 74

The value of Efficacy measured for the compound CC1=CC(C)(C)Nc2ccc3c(c21)C(c1ccc(Cl)c(Cl)c1)Oc1ccccc1-3 (centres undefined) turned out to be 42

The value of Efficacy measured for the compound CC1=CC(C)(C)Nc2ccc3c(c21)C(c1cc(C)cc(Br)c1)Oc1ccccc1-3 (centres undefined) turned out to be 31

----------
Record form. Attribute: IC50. Fill in for each entry.
- Assayed system: UniProt P06401
- Sequence (P06401 whole entry): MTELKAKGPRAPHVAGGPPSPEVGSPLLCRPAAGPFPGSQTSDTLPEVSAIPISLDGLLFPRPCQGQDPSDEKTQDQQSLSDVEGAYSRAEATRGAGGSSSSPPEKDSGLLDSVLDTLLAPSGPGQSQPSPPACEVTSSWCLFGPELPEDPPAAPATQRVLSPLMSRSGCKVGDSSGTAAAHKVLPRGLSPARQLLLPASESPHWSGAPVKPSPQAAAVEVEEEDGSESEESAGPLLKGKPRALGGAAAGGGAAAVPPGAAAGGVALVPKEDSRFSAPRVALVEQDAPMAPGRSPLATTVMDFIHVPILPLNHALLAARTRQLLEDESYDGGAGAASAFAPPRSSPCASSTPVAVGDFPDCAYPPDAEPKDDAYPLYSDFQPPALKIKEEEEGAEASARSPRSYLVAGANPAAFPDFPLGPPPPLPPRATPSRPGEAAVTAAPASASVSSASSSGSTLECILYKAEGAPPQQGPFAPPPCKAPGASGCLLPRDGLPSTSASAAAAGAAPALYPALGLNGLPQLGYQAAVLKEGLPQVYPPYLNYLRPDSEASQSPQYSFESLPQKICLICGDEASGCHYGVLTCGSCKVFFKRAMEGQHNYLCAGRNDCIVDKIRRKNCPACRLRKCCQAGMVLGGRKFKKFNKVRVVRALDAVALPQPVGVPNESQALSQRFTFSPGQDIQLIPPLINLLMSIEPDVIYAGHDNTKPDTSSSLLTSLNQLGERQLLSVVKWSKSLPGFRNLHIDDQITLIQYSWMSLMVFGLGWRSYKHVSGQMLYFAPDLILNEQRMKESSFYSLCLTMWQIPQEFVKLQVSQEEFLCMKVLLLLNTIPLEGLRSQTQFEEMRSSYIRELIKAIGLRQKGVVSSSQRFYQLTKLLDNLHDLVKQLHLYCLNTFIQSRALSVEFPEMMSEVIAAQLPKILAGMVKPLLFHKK
- Assay: Antagonistic activity was determined in Human progesterone receptor(hPR) of CV-1 cells in cotransfection assay.
Express the result in nM but write the number alone.

Observed IC50 on UniProt P06401, entry CC1=CC(C)(C)Nc2ccc3c(c21)C(c1cccc(F)c1)Oc1ccccc1-3 (stereo not given) , equals 150

Observed IC50 on UniProt P06401, entry CC1=CC(C)(C)Nc2ccc3c(c21)C(c1cccc(Br)n1)Oc1ccccc1-3 (stereo not given) , equals 71

Observed IC50 on UniProt P06401, entry CC1=CC(C)(C)Nc2ccc3c(c21)C(c1cc(C)cc(Br)c1)Oc1ccccc1-3 (stereo not given) , equals 1100

Observed IC50 on UniProt P06401, entry CC1=CC(C)(C)Nc2ccc3c(c21)C(c1cc(F)cc(Br)c1)Oc1ccccc1-3 (stereo not given) , equals 1210

Observed IC50 on UniProt P06401, entry COc1ccc(C2Oc3ccccc3-c3ccc4c(c32)C(C)=CC(C)(C)N4)cc1 (stereo not given) , equals 105
